Examples of molecules with documented DC50 follow.
SYSTEM TESTED: von Hippel-Lindau disease tumor suppressor/Nuclear receptor subfamily 1 group I member 2 (Homo sapiens, UniProt O75469+P40337)
Sequence (O75469 whole entry): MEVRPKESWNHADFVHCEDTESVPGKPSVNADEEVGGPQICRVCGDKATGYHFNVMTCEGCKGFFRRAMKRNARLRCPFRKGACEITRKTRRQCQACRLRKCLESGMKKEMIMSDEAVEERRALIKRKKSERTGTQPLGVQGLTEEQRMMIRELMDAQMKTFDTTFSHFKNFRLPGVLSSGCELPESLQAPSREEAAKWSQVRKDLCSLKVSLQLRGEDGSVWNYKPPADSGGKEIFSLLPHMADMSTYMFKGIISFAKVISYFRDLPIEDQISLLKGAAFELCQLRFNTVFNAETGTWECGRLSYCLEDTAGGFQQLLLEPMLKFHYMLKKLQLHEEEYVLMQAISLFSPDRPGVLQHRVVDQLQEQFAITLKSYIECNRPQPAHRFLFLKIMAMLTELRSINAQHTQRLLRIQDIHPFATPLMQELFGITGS
Sequence (P40337 whole entry): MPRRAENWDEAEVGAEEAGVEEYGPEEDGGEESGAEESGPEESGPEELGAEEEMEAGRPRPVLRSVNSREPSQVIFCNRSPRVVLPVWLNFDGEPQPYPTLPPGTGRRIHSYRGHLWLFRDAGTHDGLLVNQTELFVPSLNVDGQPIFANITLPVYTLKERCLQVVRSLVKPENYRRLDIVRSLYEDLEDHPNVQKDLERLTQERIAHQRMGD
ASSAY COMMENT: PROTAC activity at N-terminal PXR/VHL in human SNU-C4 HiBiT-PXR KI cell assessed as reduction in PXR protein level incubated for 24 hrs by Western blot analysis
Assay type: cell-based

{"SMILES STRING": "COc1cc(OCCOCCOCCOCCC(=O)N[C@H](C(=O)N2C[C@H](O)C[C@H]2C(=O)NCc2ccc(-c3scnc3C)cc2)C(C)(C)C)c(C)cc1-n1nnc(S(=O)(=O)c2ccc(C(C)(C)C)cc2)c1C", "DC50": "> 30 µM"}
{"SMILES STRING": "COc1cc(OCCCCCCCC(=O)N[C@H](C(=O)N2C[C@H](O)C[C@H]2C(=O)NCc2ccc(-c3scnc3C)cc2)C(C)(C)C)c(C)cc1-n1nnc(S(=O)(=O)c2ccc(C(C)(C)C)cc2)c1C", "DC50": "> 30 µM"}

Problem: Which DC50 reading was recorded for the molecule CCC[C@H](CC)Oc1ccc(C(=O)N[C@H](C(=O)N2C[C@H](O)C[C@H]2C(=O)NCc2ccc(-c3scnc3C)cc2)C(C)(C)C)cc1NC(=O)c1nnn(-c2cc(OC)ccc2OC)c1C ?
Solution: > 30 µM
